- Tested on: 596521-263-R-J1-PDC complex spheroid growth;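 note: spheroids exposed to compounds for 7 days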
- testSummary: Anticancer human tumor 596521-263-R-J1-PDC patient-derived soft tissue sarcoma cell line growth inhibition [Asc]
- conditionSummary: second compound 0.316 µM; first compound 0.01 µM; stronger effect = lower value
observable: viability, T/C (%)
Output spec: scalar in %, unitless text.

Look up and report measured viability, T/C for this entry: CCN1CCN(Cc2ccc(Nc3ncc(F)c(-c4cc(F)c5nc(C)n(C(C)C)c5c4)n3)nc2)CC1 + CNC(C)C(=O)NC1CN(S(=O)(=O)c2cccc(S(=O)(=O)N3CCC4CCC(C(=O)NC(c5ccccc5)c5ccccc5)N4C(=O)C(NC(=O)C(C)NC)C3)c2)CCC2CCC(C(=O)NC(c3ccccc3)c3ccccc3)N2C1=O
78.1

Look up and report measured viability, T/C for this entry: NC1CCC(NC2CC2c2ccccc2)CC1 (configuration not stated) + Cc1c(S(C)(=O)=O)c(-c2cc(F)cc(N3CCN(c4ccc(NS(=O)(=O)c5ccc(NC(CCN6CCC(C(=O)OCCCP(=O)(O)O)CC6)CSc6ccccc6)c(S(=O)(=O)C(F)(F)F)c5)cc4)CC3)c2)c(-c2ccc(Cl)cc2)n1C(C)C
77.9

Look up and report measured viability, T/C for this entry: COc1c(OCCCN2CCOCC2)ccc2c3n(c(=NC(=O)c4cnc(N)nc4)nc12)CCN3 + Cc1c(S(C)(=O)=O)c(-c2cc(F)cc(N3CCN(c4ccc(NS(=O)(=O)c5ccc(NC(CCN6CCC(C(=O)OCCCP(=O)(O)O)CC6)CSc6ccccc6)c(S(=O)(=O)C(F)(F)F)c5)cc4)CC3)c2)c(-c2ccc(Cl)cc2)n1C(C)C
84.2

Look up and report measured viability, T/C for this entry: O=C(c1ccc(F)c(F)c1Nc1ccc(I)cc1F)N1CC(O)([C@@H]2CCCCN2)C1 + Cc1c(S(C)(=O)=O)c(-c2cc(F)cc(N3CCN(c4ccc(NS(=O)(=O)c5ccc(NC(CCN6CCC(C(=O)OCCCP(=O)(O)O)CC6)CSc6ccccc6)c(S(=O)(=O)C(F)(F)F)c5)cc4)CC3)c2)c(-c2ccc(Cl)cc2)n1C(C)C
84

Look up and report measured viability, T/C for this entry: CNC(C)C(=O)NC1CN(S(=O)(=O)c2cccc(S(=O)(=O)N3CCC4CCC(C(=O)NC(c5ccccc5)c5ccccc5)N4C(=O)C(NC(=O)C(C)NC)C3)c2)CCC2CCC(C(=O)NC(c3ccccc3)c3ccccc3)N2C1=O (configuration not stated) + Cc1c(S(C)(=O)=O)c(-c2cc(F)cc(N3CCN(c4ccc(NS(=O)(=O)c5ccc(NC(CCN6CCC(C(=O)OCCCP(=O)(O)O)CC6)CSc6ccccc6)c(S(=O)(=O)C(F)(F)F)c5)cc4)CC3)c2)c(-c2ccc(Cl)cc2)n1C(C)C
89.7

Look up and report measured viability, T/C for this entry: O=C(c1ccc(F)c(F)c1Nc1ccc(I)cc1F)N1CC(O)([C@@H]2CCCCN2)C1 + CNC(C)C(=O)NC1CN(S(=O)(=O)c2cccc(S(=O)(=O)N3CCC4CCC(C(=O)NC(c5ccccc5)c5ccccc5)N4C(=O)C(NC(=O)C(C)NC)C3)c2)CCC2CCC(C(=O)NC(c3ccccc3)c3ccccc3)N2C1=O
91.6

Look up and report measured viability, T/C for this entry: CCN1CCN(Cc2ccc(Nc3ncc(F)c(-c4cc(F)c5nc(C)n(C(C)C)c5c4)n3)nc2)CC1 + Cc1c(S(C)(=O)=O)c(-c2cc(F)cc(N3CCN(c4ccc(NS(=O)(=O)c5ccc(NC(CCN6CCC(C(=O)OCCCP(=O)(O)O)CC6)CSc6ccccc6)c(S(=O)(=O)C(F)(F)F)c5)cc4)CC3)c2)c(-c2ccc(Cl)cc2)n1C(C)C
79

Sourced from PubChem BioAssay AID1963449
